System: SF-268
Assay: NCI tumour cell line growth inhibition, 48 h
Active and inactive are the calls of the source. Rule as the data show it: active = GI50 up to about 1.1 µM and inactive = higher.
experimental_endpoint: GI50

* CC1C(NNC(N)=O)Oc2cc3c(cc2C1c1ccccc1O)OCO3 (stereo unspecified) | 39.6 µM (inactive)
* CC(C)(C)C(=O)OCC(COC(=O)C(C)(C)C)[N+](=O)[O-] | > 100 µM (inactive)

In: Which measured GI50 value corresponds to Nc1nnnn1CCO ?
Out: > 100 µM (inactive)

In: Similarly, O=C1C2CCCC2N1Cc1ccccc1 (stereo unspecified) ?
Out: > 100 µM (inactive)

In: Now consider CCCCCCCCCCCC(=O)OCCOCCOCCOCCOCCOCc1ccc(OC)cc1 and answer again.
Out: > 100 µM (inactive)

In: Then this compound: O=S(=O)(Cc1cnc(O)nc1O)Cc1cnc(O)nc1O
Out: > 100 µM (inactive)

In: Repeat with CCOC(=O)C(Cc1ccc(N(CCCl)CCCl)cc1)NC(=O)C(Cc1ccccc1)NC=O (stereo unspecified)
Out: 0.0968 µM (active)

The origin of these recorded values is ChEMBL document CHEMBL1201862.
